# System: A498 renal
# assay_summary: NCI tumour cell line growth inhibition, 48 h
Reported TGI is given for each of the following molecules.
quantity_kind: TGI (µM)

- N#CC1(C2SCCS2=O)C2=C(C(=O)c3ccccc3C2=O)N2CCCC21 (stereo not given): 13
- CCN(CC)CC(C)(C)C(=O)/C=C/c1ccc(Cl)c(Cl)c1: 3.55
- CC(=O)O[C@@H]1C[C@]2(C(C)C)O[C@@]1(C)[C@@H]1CCC(C)=C1[C@@H]2OC(=O)/C=C/c1ccccc1: 6.59
- CC(=O)c1sc2c(c1OC(=O)c1cccs1)c(=O)n(-c1ccccc1)c(=S)n2-c1ccccc1: 15.9

---

# Tested on: SW-620 colon
# assay_summary: NCI tumour cell line growth inhibition, 48 h
quantity_kind: TGI

• O=c1c(-c2ccccc2)c(SCCCN2CCN(c3cccc(Cl)c3)CC2)n(-c2ccccc2)c(=S)n1-c1ccccc1 = > 100 µM
• Cc1ccc2nc(-c3ccc(N)c(I)c3)sc2c1 = 57.8 µM
• COc1cc(/C=C2\C[C@H]3[C@@H]4CC=C5C[C@@H](O)CC[C@]5(C)[C@H]4CC[C@]3(C)C2=O)cc(OC)c1OC = > 100 µM
• OCCCCC#Cc1ccccc1C#Cc1cccc(O)c1 = 33.3 µM
• CN(C)Cc1c[nH]c2c1C(=O)c1c(c(O)c3ccccc3c1O)C2=O = 14.6 µM
• O=C(O)c1cc(O)c2c(c1)C(C1c3cc(C(=O)O)cc(O)c3C(=O)c3c(OC4OC(CO)C(O)C(O)C4O)cccc31)c1cccc(OC3OC(CO)C(O)C(O)C3O)c1C2=O (centres undefined) = > 100 µM
• COc1ccc(C2C(C#N)=C(N)OC3=C2COc2ccc(F)cc23)cc1OC (centres undefined) = > 100 µM
• N#CC(C(=O)/C(=N/Nc1nc(=S)[nH]n1N)C(C#N)c1ccccc1)c1ccccc1 (centres undefined) = > 100 µM
• O=C(/C=C/c1c(O)ccc2ccccc12)c1ccc2ccccc2c1 = > 100 µM

---

# Tested on: MDA-MB-231 breast
# assay_summary: NCI tumour cell line growth inhibition, 48 h; in the data active means GI50 below about 0.43 µM; inactive means the rest
Classes used: active, inactive

• Cc1n(Cc2ccc3ccccc3c2)cc[n+]1Cc1ccc2ccccc2c1 = inactive
• Cc1[nH]n(-c2cccc(Cl)c2)c(=O)c1/C=C1\C=Nc2ccc(Br)cc21 = inactive
• CCN(CC)CC(C)(C)C(=O)/C=C/c1ccc(Cl)c(Cl)c1 = inactive
• CN(C)Cc1c[nH]c2c1C(=O)c1c(c(O)c3ccccc3c1O)C2=O = inactive
• Cc1c(C2Nc3ccccc3C2C)[nH]c2ccccc12 (stereo not given) = inactive
• O=C(Nc1cccc(Cl)c1Cl)c1cccc(NC2=C(Cl)C(=O)N(Cc3ccccc3)C2=O)c1 = inactive
• COc1ccc(-n2cc(-c3ccc(Cl)c(Cl)c3)nc2SCc2cccc(C#N)c2)cc1 = inactive
• Cc1sc2nc(NCCc3c[nH]c4ccc(Cl)cc34)[nH]c(=O)c2c1C = inactive
• COC(=O)[C@@H](NC(=O)[C@@H](OC)[C@@H]1Cc2cc3cc(OC4CC(OC5CC(O)C(O)C(C)O5)C(O)C(C)O4)c(C)c(O)c3c(O)c2C(=O)[C@H]1OC1CC(OC2CC(OC3CC(C)(O)C(O)C(C)O3)C(O)C(C)O2)C(O)C(C)O1)C(C)C (stereo not given in full) = active
• O=C(N/N=C\c1cc(Br)ccc1O)c1ccncc1 = inactive
• O=C(Nc1ccc(Cl)cc1F)c1cc(Br)ccc1O = inactive
• COc1ccc(CNc2c3ccccc3nc3ccccc23)cc1OC = inactive
• O=C(O)c1cc(O)c2c(c1)C(C1c3cc(C(=O)O)cc(O)c3C(=O)c3c(OC4OC(CO)C(O)C(O)C4O)cccc31)c1cccc(OC3OC(CO)C(O)C(O)C3O)c1C2=O (stereo not given) = inactive
• c1ccc2c3ccn4cc5c(cc4c-3nc2c1)CCCC5 = inactive
• Cc1cn2c(/C=C3/C(=O)Nc4ccccc43)c(-c3ccc(Cl)cc3)nc2s1 = inactive

Origin of measurements: PubChem BioAssay (NCI)
